Measured IC50, listed per entry.
# Test system: Aβtotal
# test: Screening for γ-secretase-modulating activity in SKNBE2 cells carrying APP 695 wild type: Aβtotal in cell supernatant (Alphalisa)
# Type: cell-based
# experimental-conditions: Homo sapiens, overnight incubation

Reference set (2 entries):
COc1nc(Nc2nc3n(n2)CCCC3c2ccc(F)cc2)ccc1-c1ccnc(C)c1 (stereo not shown) [Compound 16] | > 10 µM
COc1cc(Nc2nc3n(n2)CCCC3c2cc(C(F)(F)F)ccc2F)ccc1-n1cnc(C)c1 (stereo not shown) [Compound 48] | 5.75 µM

IC50 measured on COc1cc(Nc2nc3n(n2)CCOC3c2ccc(F)cc2C)ccc1-c1ccnc(C)c1 (stereo not shown) [Compound 92] = > 10 µM

IC50 measured on COc1cc(Nc2nc3n(n2)CCCC3c2cc(C(F)(F)F)ccc2F)ccc1-c1ccnc(C)c1 (stereo not shown) [Compound 182] = > 10 µM

* * *

metric-name: melting point (°C)

Reference set (6 entries):
COc1cc(Nc2nc3n(n2)CCCC3c2ccccc2Cl)ccc1-c1ccnc(C)c1 (stereo not shown) [Compound 78] | 169
COc1cc(Nc2nc3n(n2)CCCC3c2cccc(C(F)(F)F)c2)ccc1-n1cnc(C)c1 (stereo not shown) [Compound 34] | 224.9
COc1cc(Nc2nc3n(n2)CCCC3c2ccc(F)cc2F)ccc1-c1ccnc(C)c1 (stereo not shown) [Compound 82] | 192.7
COc1cc(Nc2nc3n(n2)CCCC3c2ccccc2C(F)(F)F)ccc1-n1cnc(C)n1 (stereo not shown) [Compound 15] | 233.2
COc1cc(Nc2nc3c(-c4ccccc4C(F)(F)F)nccn3n2)ccc1-n1cnc(C)c1 [Compound 8] | 206.9
COc1cc(Nc2nc3n(n2)CCOC3c2ccccc2C(F)(F)F)ccc1-n1cnc(C)c1 (stereo not shown) [Compound 47] | 202.9

[P] COc1cc(Nc2nc3n(n2)CCC(C)C3c2ccc(F)cc2)ccc1-c1ccnc(C)c1 (racemic) [Compound 101]
[Q] COc1cc(Nc2nc3c(-c4cccc(C(F)(F)F)c4)nccn3n2)ccc1-n1cnc(C)c1 [Compound 22]
Problem: Between P and Q , which one shows the smaller melting point number? Please indicate the selected item by its label.
Solution: P

* * *

# Test system: Aβtotal
# test: Screening for γ-secretase-modulating activity in SKNBE2 cells carrying APP 695 wild type: Aβtotal in cell supernatant (Alphalisa)
# Assay type: cell-based
# experimental-conditions: Homo sapiens, overnight incubation
# Source text: Pharmacology A) Screening of the Compounds of the Invention for γ-Secretase-Modulating Activity […] Aβtotal and Aβ42 concentrations were quantified in the cell supernatant using the Aphalisa technology (Perkin Elmer). […] To quantify the amount of Aβ42 in the cell supernatant, monoclonal antibody specific to the C-terminus of Aβ42 (JRF/cAβ42/26) was coupled to the receptor beads and biotinylated antibody specific to the N-terminus of Aβ (JRF/AβN/25) was used to react with the donor beads. […]
pIC50: −log10 of the molar value.
Measured pIC50, listed per entry.

Reference set (5 entries):
COc1cc(Nc2nc3n(n2)CCCC3c2ccccc2C(F)(F)F)ccc1-n1cnc(C)c1 (centres unmarked) | 5.24
COc1cc(Nc2nc3n(n2)CCC(C)C3c2ccc(F)cc2)ccc1-c1ccnc(C)c1 (racemic) | < 5.00
COc1cc(Nc2nc3n(n2)CCCC3c2ccccc2C(F)(F)F)ccc1-c1ocnc1C (centres unmarked) | < 5.00
COc1cc(Nc2nc3n(n2)CCCC3c2c(F)cccc2Cl)ccc1-c1ccnc(C)c1 (centres unmarked) | < 5.00
COc1cc(C2CCCn3nc(Nc4ccc(-c5ccnc(C)c5)c(OC)c4)nc32)ccc1F (centres unmarked) | < 4.82

pIC50 measured on COc1nc(Nc2nc3n(n2)CCCC3c2ccccc2Cl)ccc1-n1cnc(C)c1 (centres unmarked) = < 5.00

pIC50 measured on "Cc1ncoc1-c1ccc(Nc2nc3c(-c4ccccc4C(F)(F)F)cccn3n2)cc1" = < 5.00

pIC50 measured on COc1ccc(F)c(C2CCCn3nc(Nc4ccc(-c5ccnc(C)c5)c(F)c4)nc32)c1 (centres unmarked) = < 5.00

* * *

# Tested on: Aβ42
# test: Screening for γ-secretase-modulating activity in SKNBE2 cells carrying APP 695 wild type: Aβ42 in cell supernatant (Alphalisa)
# Type: cell-based
# experimental-conditions: Homo sapiens, SKNBE2, SKNBE2 cells carrying APP 695 wild type, overnight incubation
pIC50: −log10 of the molar value. Counter-ions that a name gives are not always drawn.
metric-name: pIC50

Reference set (8 entries):
Cc1cc(-c2ccc(Nc3nc4n(n3)CCCC4c3cc(C(F)(F)F)ccc3C)cc2)ccn1 (centres unmarked) | 7.55
COc1cc(Nc2nc3n(n2)CCCC3c2ccc(C(F)(F)F)cc2)ccc1-n1cnc(C)c1 (centres unmarked) | 7.72
Cc1cc(-c2ccc(Nc3nc4n(n3)CCCC4c3ccccc3C(F)(F)F)cc2)c(C)cn1 (centres unmarked) | 6.84
COc1cc(F)cc(C2CCCn3nc(Nc4ccc(-c5ccnc(C)c5)c(OC)c4)nc32)c1 (centres unmarked) | 7.39
COc1cc(Nc2nc3c(-c4ccccc4C(F)(F)F)cccn3n2)ccc1-n1cnc(C)n1 | 7.72
COc1cc(Nc2nc3n(n2)CCN(C)C3c2ccccc2C(F)(F)F)ccc1-n1cnc(C)c1 (centres unmarked) | 8.05
COc1cc(Nc2nc3n(n2)CCCC3c2cccc(C(F)(F)F)c2)ccc1-n1cnc(C)c1 (centres unmarked) | 8.00
COc1nc(Nc2nc3n(n2)CCCC3c2ccccc2C(F)(F)F)ccc1-n1cnc(C)c1 (centres unmarked) | 6.53

[A] COc1cc(N(C)c2nc3n(n2)CCCC3c2ccccc2C(F)(F)F)ccc1-n1cnc(C)c1 (centres unmarked) [Compound 33, HCl]
[B] COc1cc(Nc2nc3c(-c4ccccc4C(F)(F)F)nccn3n2)ccc1-n1cnc(C)c1
Problem: Which item exceeds the other in pIC50, A or B ? Please indicate the selected item by its label.
Solution: B

[a] COc1cc(Nc2nc3n(n2)CCC(c2ccccc2C(F)(F)F)C3)ccc1-c1ccnc(C)c1 (centres unmarked) [Compound 62, HCl]
[b] COc1cccc(C2CCCn3nc(Nc4ccc(-c5ccnc(C)c5)cc4)nc32)c1 (centres unmarked)
[c] COc1nc(Nc2nc3n(n2)CCCC3c2ccc(F)cc2)ccc1-c1ccnc(C)c1 (centres unmarked)
Problem: Please put the entries in order of rising pIC50. Answer by naming the labels in the order asked.
Solution: c, a, b

* * *

metric-name: melting point (°C)

COc1cc(Nc2nc3n(n2)CCCC3c2cc(C(F)(F)F)ccc2F)ccc1-n1cnc(C)c1 (stereo not shown) | 204.4
COc1cc(Nc2nc3n(n2)CCCC3c2cccc(F)c2)ccc1-n1cnc(C)c1 (stereo not shown) | 200.6
COc1cc(Nc2nc3n(n2)CCOC3c2ccc(F)cc2C)ccc1-c1ccnc(C)c1 (stereo not shown) | 201.9
COc1cc(Nc2nc3n(n2)CCC[C@@H]3c2ccccc2Cl)ccc1-n1cnc(C)c1 | 195

* * *

Measured IC50, listed per entry.
# System: Aβtotal
# test: Screening for γ-secretase-modulating activity in SKNBE2 cells carrying APP 695 wild type: Aβtotal in cell supernatant (Alphalisa)
# Format: cell-based
# experimental-conditions: Homo sapiens, overnight incubation

# lookup: "COc1cc(Nc2nc3c(-c4ccccc4Cl)cccn3n2)ccc1-c1ccnc(C)c1" on Aβtotal, IC50 = > 10 µM

# lookup: COc1cc(Nc2nc3n(n2)CCC(c2ccccc2C(F)(F)F)C3)ccc1-n1cnc(C)c1 (stereo not shown) on Aβtotal, IC50 = > 10 µM

# lookup: COc1cc(C2CCCn3nc(Nc4ccc(-c5ccnc(C)c5)cc4)nc32)ccc1F (stereo not shown) on Aβtotal, IC50 = > 15 µM

* * *

Measured IC50, listed per entry.
# Test system: Aβtotal
# test: Screening for γ-secretase-modulating activity in SKNBE2 cells carrying APP 695 wild type: Aβtotal in cell supernatant (Alphalisa)
# Format: cell-based
# experimental-conditions: Homo sapiens, overnight incubation

Reference set (2 entries):
COc1cc(Nc2nc3n(n2)CCC[C@H]3c2ccccc2Cl)ccc1-n1cnc(C)c1 [Compound 29] | > 10 µM
Cc1cc(-c2ccc(Nc3nc4n(n3)CCC[C@H]4c3ccc(F)cc3C)cc2)ccn1 [Compound 94] | > 10 µM

IC50 measured on Cc1cc(-c2ccc(Nc3nc4n(n3)CCOC4c3ccccc3C(F)(F)F)cc2)ccn1 (stereo not drawn) [Compound 85] = > 10 µM

* * *

# System: Aβ42
# test: In vivo efficacy: Aβ42 lowering in brain of non-transgenic mice after single oral dose (ELISA)
# Design: species or system mouse
# experimental-conditions: Mus musculus; dose 30 mg/kg oral dosing; soluble brain fraction, animals sacrificed after 4 h; untreated animals (Ctrl) set at 100; read-out: Aβ42 (% vs Ctrl) _Mean
metric-name: response vs control in vivo at 30 mg/kg (%)
Your answer is read as %, so omit the unit and give the number.

Reference set (2 entries):
COc1cc(Nc2nc3n(n2)CCCC3c2ccccc2C(F)(F)F)ccc1-c1ccnc(C)c1 (stereo not drawn) | 71
COc1cc(Nc2nc3c(-c4ccccc4C(F)(F)F)cccn3n2)ccc1-n1cnc(C)n1 | 75

Shifting focus to the compound that follows.
response vs control in vivo at 30 mg/kg measured on COc1cc(Nc2nc3n(n2)CCCC3c2ccccc2Cl)ccc1-c1ccnc(C)c1 (racemic) [Compound 66] = 54
